Test system: Zika virus NS2B-NS3 protease (linked construct)
Experiment: Confirmatory screen NINDS AMC qHTS for Zika virus inhibitors (AID 1347152); also: nearly all actives have a fitted effect of over 70% in size
Conditions: Purified linked NS2B-NS3, AMC substrate fluorescence; series mostly up to 56.6 µM
Results filed as inconclusive are left out. The source made the active and inactive calls. Calls follow the shape of the dose curve; as a rule, active = well fitted inhibition curve with a large enough effect; inconclusive = small, poorly fitted or top-dose-only effect; inactive = flat fitted curve, though single readings scatter.
Write down the outcome that applies. Available outcomes: active, inactive

Could you kindly confirm the outcome this assay logged for Cc1[nH]c(=O)c(C#N)cc1-c1ccncc1 ?
inactive

Now try O=C(C1CC1)N1CC[C@@H](Cn2c(-c3ccc(-c4ccc5occc5c4)cc3)nc3cnccc32)C1 .
active

Now try COc1ccc(-c2ccc3c(N4CCOCC4)nc(N4C[C@@H](C)O[C@@H](C)C4)nc3n2)cc1CO .
active

====

Tested on: CP194
Test: qHTS profiling for inhibitors of Plasmodium falciparum proliferation (AID 504749); also: nearly all actives have a fitted effect of over 60% in size
Settings: P. falciparum in erythrocytes, SYBR Green DNA, 72 h; series mostly up to 28.7 µM
Results filed as inconclusive are left out. Active and inactive are the calls of the source. Calls follow the shape of the dose curve; as a rule, active = well fitted inhibition curve with a large enough effect; inconclusive = small, poorly fitted or top-dose-only effect; inactive = flat fitted curve, though single readings scatter.
Write down the outcome that applies. Available outcomes: active, inactive

As a guide, the following entries are already answered.
COMPOUND | GROUP LABEL
NS(=O)(=O)c1cc2c(cc1Cl)NC=NS2(=O)=O | inactive
Cc1cn[nH]c1 | inactive
Oc1ccc(C2CNCCc3c2cc(O)c(O)c3Cl)cc1 (stereo not given) | inactive
Clc1ccc(Nc2nnc(Cc3ccncc3)c3ccccc23)cc1 | inactive
NC(=O)c1cnccn1 | inactive
Nc1nc2c(ncn2COCCO)c(=O)[nH]1 | inactive
O=c1[nH]cnc2[nH]ncc12 | inactive
N[C@@H]1CONC1=O | inactive
Cc1ccc(N(CC2=NCCN2)c2cccc(O)c2)cc1 | inactive
O=C1CCc2cc(OCCCCc3nnnn3C3CCCCC3)ccc2N1 | inactive

Could you kindly confirm the outcome this assay logged for CC(C)C[C@H](NC(=O)[C@@H](O)[C@H](N)Cc1ccccc1)C(=O)O ?
active

Now try CCOC(=O)C1=C[C@@]2(CC)CCCN3CCc4c(n1c1ccccc41)[C@H]32 .
active

Now try Cc1[nH]c(=O)c(C#N)cc1-c1ccncc1 .
inactive

====

System: JEG-3
Assay: Primary qHTS to identify gynecologic anti-cancer compounds using libraries of approved drugs and bioactive compounds (AID 1345084); also: nearly all actives have a fitted effect of over 55% in size
Conditions: Gynecologic cancer cell panel viability, ATPlite luminescence, 48 h; series mostly up to 57.5 µM
Records with an inconclusive call do not appear. Calls of active or inactive are those of the source. Calls come from the whole dose curve; as a rule, active = well fitted cell-killing curve with a large enough effect; inconclusive = small, poorly fitted or top-dose-only effect, or effect the other way; inactive = flat fitted curve, though single readings scatter.
Write down the outcome that applies. Available outcomes: active, inactive

As a guide, the following entries are already answered.
COMPOUND | GROUP LABEL
C[C@@H]1CN(Cc2ccc(F)cc2)[C@@H](C)CN1C(=O)c1cc2c(C(=O)C(=O)N(C)C)cn(C)c2cc1Cl | inactive
C[C@H](NC(=O)Cc1cc(F)cc(F)c1)C(=O)N[C@@H]1C(=O)N(C)c2ccccc2-c2ccccc21 | inactive
Cn1cnc([N+](=O)[O-])c1Sc1ncnc2nc[nH]c12 | active
OCCn1cc(-c2cnc3nnn(Cc4ccc5ncccc5c4)c3n2)cn1 | inactive

Proceed to the following item.
Could you kindly confirm the outcome this assay logged for OC(CCN1CCCCC1)(c1ccccc1)C1CC2C=CC1C2 (stereo not given) ?
inactive

====

Assay: Quantitative High-Throughput drug screen in 47 multiple myeloma cell lines against the NCATS MIPE library collection: XG1_PLB cell viability assay (AID 1919866); also: nearly all actives have a fitted effect of over 35% in size
Conditions: CellTiter-Glo ATP, 48 h; series mostly up to 45.8 µM
Inconclusive results are not listed. Activity calls are given as the source filed them. Calls follow the shape of the dose curve; as a rule, active = well fitted cell-killing curve with a large enough effect; inconclusive = small, poorly fitted or top-dose-only effect, or effect the other way; inactive = no such curve, though single readings can be large or run the other way.
Write down the outcome that applies. Available outcomes: active, inactive

Could you kindly confirm the outcome this assay logged for CN(C)c1ccc(Nc2nc(N)n(C(=O)c3c(F)cccc3F)n2)cc1 ?
active

Now try CC(=O)Oc1ccccc1C(=O)O .
active

Now try Cc1oncc1C(=O)Nc1ccc(C(F)(F)F)cc1 .
active

Now try CC(C)(C)NCC(O)c1ccc(O)c(CO)c1 (stereo unspecified) .
inactive

Now try COc1cc2nccc(Oc3ccc(NC(=O)NC4CC4)c(Cl)c3)c2cc1C(N)=O .
active

Now try CC(C)OC(=O)C1=CN(C(=O)c2ccc(F)c(F)c2)CC(C)(C)c2c1[nH]c1ccccc21 .
inactive

Now try Cc1ccccc1C(C(=O)NC1CCCC1)N(C(=O)Cn1cnc2ccccc21)c1cccc(F)c1 (stereo unspecified) .
active

Now try Cc1cc(Nc2nc(N[C@@H](C)c3ncc(F)cn3)ncc2Cl)n[nH]1 .
active

Now try COc1ccc(CCN2CCN(CCCc3ccccc3)CC2)cc1OC .
inactive

Now try CCOC(=O)N[C@@H]1CC[C@@H]2[C@@H](C1)C[C@H]1C(=O)O[C@H](C)[C@H]1[C@@H]2C=Cc1ccc(-c2cccc(F)c2)cn1 .
active

====

Assay: Quantitative High-Throughput drug screen in 47 multiple myeloma cell lines against the NCATS MIPE library collection: JJN3_DSMZ cell viability assay (AID 1918966; also: nearly all actives have a fitted effect of over 50% in size)
Conditions: JJN3 myeloma cells viability, CellTiter-Glo ATP, 48 h; series mostly up to 45.8 µM
Results filed as inconclusive are left out. Active and inactive are the calls of the source. Calls come from the whole dose curve; as a rule, active = well fitted cell-killing curve with a large enough effect; inconclusive = small, poorly fitted or top-dose-only effect, or effect the other way; inactive = no such curve, though single readings can be large or run the other way.
Write down the outcome that applies. Available outcomes: TRUE = active, FALSE = inactive

COMPOUND | GROUP LABEL
Cc1cc(C=c2sc3nc4ccccc4n3c2=O)c(C)n1-c1ccccc1 | TRUE
Cc1cc2c(C(C)C)c(O)c(O)c(C=O)c2c(O)c1-c1c(C)cc2c(C(C)C)c(O)c(O)c(C=O)c2c1O | TRUE
O=NN(CCCl)C(=O)NCCCl | TRUE
Cc1cnc(NC(=O)C2=C(O)c3ccccc3S(=O)(=O)N2C)s1 | FALSE
COc1ccccc1[C@H](c1cccc2ccccc12)[C@@](C)(C#N)C(=O)N1CCC(c2cccc(C(F)(F)F)c2)CC1 | TRUE
COc1cc2nccc(Oc3ccc(NC(=O)NC4CC4)c(Cl)c3)c2cc1C(N)=O | TRUE

Proceed to the following item.
Could you kindly confirm the outcome this assay logged for COc1ccccc1-c1cccc(-c2c(O)c3cc(C#N)c(Cl)cc3[nH]c2=O)c1 ?
FALSE

====

Experiment: qHTS Screen of the MIPE 4.0 Collection Against Ewings Sarcoma (EW8) (AID 1259255); also: nearly all actives have a fitted effect of over 35% in size
Conditions: EW8 Ewing sarcoma viability, CellTiter-Glo, 48 h; series mostly up to 45.8 µM
Inconclusive results are not listed. Active and inactive are the calls of the source. The call rests on the fitted dose curve; in most records, active means well fitted inhibition curve with a large enough effect; inconclusive means small, poorly fitted or top-dose-only effect; inactive means no such curve, though single readings can be large or run the other way.
Write down the outcome that applies. Available outcomes: active, inactive

As a guide, the following entries are already answered.
COMPOUND | GROUP LABEL
CCOC(=O)N1CCC(=C2c3ccc(Cl)cc3CCc3cccnc32)CC1 | active
CC(=O)Oc1ccccc1C(=O)O | active

Could you kindly confirm the outcome this assay logged for COc1ccccc1[C@H](c1cccc2ccccc12)[C@@](C)(C#N)C(=O)N1CCC(c2cccc(C(F)(F)F)c2)CC1 ?
active

Now try Cc1[nH]c(=O)c(C#N)cc1-c1ccncc1 .
inactive

Now try NC(=O)c1cnccn1 .
inactive

Now try O=c1[nH]c(-c2ccc(C(F)(F)F)cc2)nc2c1CSCC2 .
active

Now try OCCn1cc(-c2cnc3nnn(Cc4ccc5ncccc5c4)c3n2)cn1 .
inactive

Now try COc1ccc(C2=N[C@H](c3ccc(Cl)cc3)[C@H](c3ccc(Cl)cc3)N2C(=O)N2CCNC(=O)C2)c(OC(C)C)c1 .
active

Now try Cc1cccc(-c2nn(C(=S)Nc3ccccc3)cc2-c2ccnc3ccccc23)n1 .
inactive

Now try O=C1[C@H](Cc2ccc(O)cc2)N2C(=O)CCN(C(=O)NCc3ccccc3)[C@H]2CN1Cc1cccc2ccccc12 .
active

Now try NC(=O)c1ccc(I)c([N+](=O)[O-])c1 .
inactive

Now try Cc1cc2c(C(C)C)c(O)c(O)c(C=O)c2c(O)c1-c1c(C)cc2c(C(C)C)c(O)c(O)c(C=O)c2c1O .
active

Now try Cc1ccc(N(CC2=NCCN2)c2cccc(O)c2)cc1 .
inactive

Now try NCCCC(N)(C(=O)O)C(F)F (centres undefined) .
inactive

Now try CC(=O)NC(C)c1ccc(Oc2ccc(OC(C)C)cc2)cc1 (centres undefined) .
active

Now try CCn1cc(C(=O)O)c(=O)c2cc(F)c(N3CCNC(C)C3)c(F)c21 (centres undefined) .
inactive

====

Assay: Quantitative High-Throughput drug screen in 47 multiple myeloma cell lines against the NCATS MIPE library collection: MM1R_ATCC cell viability assay (AID 1918981); also: potency is read from the fitted curve at half-maximal effect; nearly all actives have a fitted effect of over 35% in size
Details: MM1R multiple myeloma cells, CellTiter-Glo viability, 48 h; series mostly up to 45.8 µM
Results filed as inconclusive are left out. Activity calls are given as the source filed them. Calls follow the shape of the dose curve; as a rule, active = well fitted cell-killing curve with a large enough effect; inconclusive = small, poorly fitted or top-dose-only effect, or effect the other way; inactive = no such curve, though single readings can be large or run the other way.
Consider the following compounds and their measured Potency readings.

Entry under review: CCn1c(-c2nonc2N)nc2cnc(Oc3cccc(NC(=O)c4ccc(OCCN5CCOCC5)cc4)c3)cc21 . Reported Potency?
16.6 µM (active)

Now try CCc1cncnc1N1CCN(Cc2nc3ccc(C(F)(F)F)cc3[nH]2)CC1 .
18.7 µM (active)

Now try O=c1ncn2nc(Sc3ccc(F)cc3F)ccc2c1-c1c(Cl)cccc1Cl .
16.6 µM (active)

Now try Cc1cn[nH]c1 .
0.132 µM (active)

Now try Cc1cc(C=c2sc3nc4ccccc4n3c2=O)c(C)n1-c1ccccc1 .
7.43 µM (active)

Now try O=C(Nc1cccnc1)N1CCC(Cc2cccc(Oc3ccc(C(F)(F)F)cn3)c2)CC1 .
13.2 µM (active)
